# Tested on: annual broad-leaved weeds
# test-method-notes: Test for herbicidal effect against paddy field weeds (Test Example 1)
# Format: in vivo
# measurement-context: 30 g ai/ha; application 5 days after inoculation; examined 3 weeks after treatment
property: herbicidal effect broad-leaved weeds (%)
Answer with a number only, understood to be in %.

Completed entries (count: 2):
>  <compound>
COc1cc(OC)nc(C(O)c2cccc(Cl)c2NS(=O)(=O)C(F)F)n1 (stereo not shown)

>  <quantity-unit>
%

>  <herbicidal effect broad-leaved weeds>
100

$$$$
>  <compound>
COc1cc(OC)nc(C(O)c2cccc(F)c2NS(=O)(=O)C(F)(F)F)n1 (stereo not shown) [Compound C-1, reference compound]

>  <quantity-unit>
%

>  <herbicidal effect broad-leaved weeds>
80

$$$$

Prompt: Entry under review: COc1cc(OC)nc(C(O)c2cccc(F)c2NS(=O)(=O)C(F)F)n1 (stereo not shown) . Reported herbicidal effect broad-leaved weeds?
Completion: 100

Prompt: Entry under review: COc1cc(OC)nc(C(=O)c2cccc(F)c2NS(=O)(=O)C(F)F)n1 . Reported herbicidal effect broad-leaved weeds?
Completion: 100
